- assay.name: binders of probe aFST on microarray, primary screen, stem cell growth factor project, biochemical, small-molecule microarray, fluorescence 635/667 (AID 1086);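 note: score merges 667 nm fluorescence with signal-to-noise of each printed compound spot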
- condition.context: higher = more signal
observed.property: composite z-score
Form field (numeric): enter value without unit.

These solved cases illustrate the format of a correct answer.
{"molecule": "C=C(COC)C(=O)CC[C@H](OC(C)=O)c1ccc(CO)o1", "reported": -0.225}
{"molecule": "CCCCCN1CC=CC23O[C@@H]4/C=C\\CCCOC(=O)C4[C@H]2C(=O)N(CCCCCO)[C@@H]3C1=O (some centres undefined)", "reported": -0.841}
{"molecule": "C=CCC(OC(C)=O)[C@@H]1[C@@H](N(Cc2ccc(-c3ccccc3)cc2)C(=O)Cc2ccc(OC)cc2)c2cc(OCCCO)ccc2N1C(=O)Cc1ccc(OC)cc1 (some centres undefined)", "reported": 0.195}

Now for the molecule whose composite z-score we want.
Exercise: Dear colleague, I am looking for the recorded composite z-score of the following molecule: C[N+](C)(C)CCCC[C@@H]1NC(=O)[C@H]2C[C@@H](C(=O)NCCCCCN)[C@@H](c3ccc(O)cc3)N2C1=O
Key: 1.2

---

- system: Pro-neuregulin-1, membrane-bound isoform (Homo sapiens)
- assay.name: NRG1 binders on small-molecule microarrays, primary screen, psychiatric disease protein project, biochemical, small-molecule microarray, fluorescence 635/667 (AID 1075);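 note: score combines 667 nm spot fluorescence with signal to noise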
- condition.context: NRG1 binding, 635 nm fluorescence, higher = more signal
Parameter composite z-score: see the listing below.

These solved cases illustrate the format of a correct answer.
{"smiles.input": "O=C1O[C@@H](c2ccccc2)[C@@H](c2ccccc2)N2[C@@H](c3ccc(OCCO)cc3)[C@]3(C(=O)Nc4ccc(C#CC5=CCCCC5)cc43)[C@@H](C(=O)Nc3nc4ccccc4s3)[C@H]12", "composite z-score": 0.744}
{"smiles.input": "CCCCC=C[C@@H](NC(=O)C(C)(C)C)c1ccccc1", "composite z-score": 1.07}
{"smiles.input": "[N-]=[N+]=Nc1ccccc1C[C@]1(C(N)=O)COC(c2ccc(OCCCO)cc2)=N1", "composite z-score": 1.81}
{"smiles.input": "C=CCNC(=O)[C@@H]1[C@H]2C(=O)O[C@H](c3ccccc3)[C@H](c3ccccc3)N2[C@H](c2ccc(O)cc2)[C@@]12C(=O)N(C(=O)OCCOC)c1ccc(C#CCC(C(=O)OC)C(=O)OC)cc12", "composite z-score": 0.946}
{"smiles.input": "C=CCNC(=O)[C@@H]1[C@H]2C(=O)O[C@H](c3ccccc3)[C@H](c3ccccc3)N2[C@H](c2ccc(OCCO)cc2)[C@@]12C(=O)Nc1ccc(C#CC3=CCCCC3)cc12", "composite z-score": 1.28}

Now for the molecule whose composite z-score we want.
Exercise: Dear colleague, I am looking for the recorded composite z-score of the following molecule: COC(=O)[C@@]1(Cc2ccc(OC)cc2)[C@@H]2[C@@H](CC(=O)[C@H]2CC(=O)C(=O)N(C)C)CN1C(=O)c1ccccc1
Key: 1.69

---

Parameter z-score: see the listing below.
- assay.name: HepG2 cell viability effects, profiling panel, calcein-AM fluorescence, 48 h, basal (AID 1164)
- condition.context: higher = more signal
Form field (numeric): enter value without unit.

These solved cases illustrate the format of a correct answer.
{"compound": "CCOC(=O)C[C@H]1[C@H](OC(=O)c2cc3ccccc3oc2=O)[C@@H](NC(=O)c2ccc(-c3ccccc3)cc2)c2cc(OCCCO)ccc2N1C(=O)Cc1ccc(OC)cc1", "observed.property": "z-score", "reported": 0.0719}
{"compound": "CC(C)(C)OC(=O)CC[C@]1(C(=O)N2CCOCC2)COC(c2ccc(OCCCO)cc2)=N1", "observed.property": "z-score", "reported": 1.26}
{"compound": "C=CCC(OC(C)=O)[C@@H]1[C@@H](N(Cc2ccc(-c3ccccc3)cc2)C(=O)Cc2ccc(OC)cc2)c2cc(OCCCO)ccc2N1C(=O)Cc1ccc(OC)cc1 (stereo partly drawn)", "observed.property": "z-score", "reported": -0.103}
{"compound": "C=CCNC(=O)[C@@H]1[C@H]2C(=O)O[C@H](c3ccccc3)[C@H](c3ccccc3)N2[C@H](c2ccc(OCCO)cc2)[C@@]12C(=O)Nc1ccc(C#CC3=CCCCC3)cc12", "observed.property": "z-score", "reported": -1.18}
{"compound": "[N-]=[N+]=NCc1ccccc1[C@H]1OC(c2ccc(OCCCO)cc2)=N[C@@]1(CCS(=O)(=O)c1ccccc1)C(=O)O", "observed.property": "z-score", "reported": 0.35}

Now for the compound whose z-score we want.
Exercise: Dear colleague, I am looking for the recorded z-score of the following compound: COC(=O)[C@@]1(Cc2ccc(F)cc2)[C@H]2c3cc(C(=O)N(C)C)n(Cc4ccsc4Br)c3C[C@H]2CN1C(=O)c1ccccc1
Key: 0.191

---

Parameter composite z-score: see the listing below.
- system: Epidermal growth factor receptor (Homo sapiens)
- assay.name: EGFR binders on small-molecule microarrays, primary screen, biochemical, small-molecule microarray, 635 nm fluorescence (AID 1104);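 note: score merges 667 nm emission intensity with spot signal to noise over triplicate slides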
- condition.context: EGFR binding, higher = more signal
Form field (numeric): enter value without unit.

{"compound": "CC(=O)NCCCC[C@@H]1NC(=O)[C@H]2C[C@@H](C(=O)O)[C@@H](c3cccc(OCCO)c3)N2C1=O", "composite z-score": 0.556}

Exercise: Dear colleague, I am looking for the recorded composite z-score of the following compound: COC(=O)[C@]1(Cc2ccccc2CN=[N+]=[N-])N=C(c2ccc(OCCCO)cc2)O[C@@H]1c1ccccc1N=[N+]=[N-]
Key: -0.296

Exercise: Dear colleague, I am looking for the recorded composite z-score of the following compound: COC(=O)[C@@]1(Cc2ccc(F)cc2)[C@H]2c3cc(C(=O)N(C)C)n(Cc4cccc5ccccc45)c3C[C@H]2CN1C(=O)c1ccccc1
Key: -0.953

Exercise: Dear colleague, I am looking for the recorded composite z-score of the following compound: CC(C)C[C@H]1NC(=O)CNC(=O)[C@@]23C(=O)N[C@@H](Cc4ccccc4)C2[C@H](C)[C@@]2(C)O[C@H]2C3/C=C/C/C=C\CNC1=O (stereo not given in full)
Key: 0.181

Exercise: Dear colleague, I am looking for the recorded composite z-score of the following compound: COC(=O)C1=CC(CCCO)=CC(c2ccc(CN3CCCC3)cc2)N(C)C=C1C(=O)OC (stereo not given)
Key: -0.138

---

Parameter composite z-score: see the listing below.
- Tested on: glycogen synthase kinase-3 (GSK3A per assay name; protocol says GSK3B)
- assay.name: GSK3 binders on small-molecule microarrays, primary screen, biochemical, small-molecule microarray, 635 nm fluorescence, GSK3A (AID 1103); note: the record names both GSK3A and GSK3B
- condition.context: small-molecule microarray binding, fluorescence 635 nm; higher = more signal
Form field (numeric): enter value without unit.

These solved cases illustrate the format of a correct answer.
{"compound": "CC(=O)NCCCC[C@@H]1NC(=O)[C@H]2C[C@@H](C(=O)NCCCCCN)[C@@H](c3ccc(O)cc3)N2C1=O", "composite z-score": 1.29}
{"compound": "CN(C)CCCCCCNC(=O)[C@@H]1C[C@@H]2C(=O)N[C@@H](CCCC[N+](C)(C)C)C(=O)N2[C@@H]1c1cccc(OCCO)c1", "composite z-score": 0.218}
{"compound": "C=CCNC(=O)[C@H]1[C@@H]2C(=O)O[C@@H](c3ccccc3)[C@@H](c3ccccc3)N2[C@@H](c2ccc(OCCO)cc2)[C@]12C(=O)N(C(=O)OCCOC)c1ccc(C#CCC(C(=O)OC)C(=O)OC)cc12", "composite z-score": 1.16}

Exercise: Dear colleague, I am looking for the recorded composite z-score of the following compound: Cc1c(NC(=O)/C(C#N)=C/C=C/c2ccc([N+](=O)[O-])cc2)c(=O)n(-c2ccccc2)n1C
Key: 1.15

Exercise: Dear colleague, I am looking for the recorded composite z-score of the following compound: OCCCc1cc[n+](Cc2cc3c(cc2Br)OCO3)cc1
Key: -1.84

Exercise: Dear colleague, I am looking for the recorded composite z-score of the following compound: CCCCN1CC=CC23O[C@@H]4/C=C\CCCOC(=O)C4[C@H]2C(=O)N(CCCCCCO)[C@@H]3C1=O (some centres not stated)
Key: -0.755

Exercise: Dear colleague, I am looking for the recorded composite z-score of the following compound: COC(=O)C(CC#Cc1ccc2c(c1)[C@]1(C(=O)N2)[C@H](C(=O)N2CCN(c3ncccn3)CC2)[C@H]2C(=O)O[C@H](c3ccccc3)[C@H](c3ccccc3)N2[C@@H]1c1ccc(O)cc1)C(=O)OC
Key: 1.37

---

- Test system: XIP peptide (Xip251-270) binding
- assay.name: small-molecule binders of XIP peptide, primary screen, biochemical, small-molecule microarray, fluorescence 635/667 nm, 0.1 µg/mL protein (AID 1182)
- condition.context: fluorescent protein binding, 635 nm, higher = more signal, called active from +8 up or from −8 down
Activity calls are given as the source filed them.
observed.property: composite z-score

These solved cases illustrate the format of a correct answer.
{"compound": "CCOC(=O)C1=CCC(c2cccn2C(=O)OC(C)(C)C)N(S(=O)(=O)c2ccc(C)cc2)C1 (stereo not given)", "reported": "0.153 (inactive)"}
{"compound": "O=C1O[C@@H](c2ccccc2)[C@@H](c2ccccc2)N2[C@@H](c3ccc(OCCO)cc3)[C@]3(C(=O)Nc4ccc(C#CC5=CCCCC5)cc43)[C@@H](C(=O)Nc3nc4ccccc4s3)[C@H]12", "reported": "-0.487 (inactive)"}

Exercise: Dear colleague, I am looking for the recorded composite z-score of the following compound: OCCCc1cc[n+](Cc2cc3c(cc2Br)OCO3)cc1
Key: 0.0084 (inactive)

Exercise: Dear colleague, I am looking for the recorded composite z-score of the following compound: C=C(CCCC)/C(=C/C[C@@H](OC(C)=O)c1ccc(OCCO)cc1)c1cc(C(=O)OC)ccc1OC
Key: 0.952 (inactive)

Exercise: Dear colleague, I am looking for the recorded composite z-score of the following compound: CC[C@H]1C2=C3C(CC[C@H]4C(OCc5ccc(F)cc5C(F)(F)F)OC[C@](C)([C@@H]34)N(C(=O)OC(C)(C)C)C2)C(COC(C)=O)C1COC(C)=O (stereo not given in full)
Key: 0.28 (inactive)

Exercise: Dear colleague, I am looking for the recorded composite z-score of the following compound: C=CC[C@]12N=C(c3ccc(OCCCO)cc3)O[C@H]1c1ccccc1N(CCC)C2=O
Key: -0.0641 (inactive)
